tested_target: T1, recombinant human activated Factor VII (FVIIa) (human, UniProt P08709 61-212; P08709 213-466, ten glutamate residues of the Gla domain may be gamma-carboxylated)
T1 construct: chains tethered by a disulfide bond; also called Factor VIIa; rFVIIa
T1 sequence 1: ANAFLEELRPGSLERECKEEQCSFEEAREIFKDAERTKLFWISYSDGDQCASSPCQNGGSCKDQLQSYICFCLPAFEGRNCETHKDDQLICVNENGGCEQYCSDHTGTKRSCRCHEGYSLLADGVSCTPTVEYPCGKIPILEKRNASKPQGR
T1 sequence 2: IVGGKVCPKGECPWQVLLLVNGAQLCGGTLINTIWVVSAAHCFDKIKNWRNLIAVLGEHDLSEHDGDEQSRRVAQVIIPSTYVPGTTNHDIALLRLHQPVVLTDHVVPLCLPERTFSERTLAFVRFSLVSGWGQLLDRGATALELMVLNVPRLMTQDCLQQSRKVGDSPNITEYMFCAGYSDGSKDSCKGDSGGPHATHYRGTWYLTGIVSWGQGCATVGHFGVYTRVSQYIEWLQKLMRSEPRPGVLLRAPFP
experiment_notes: BLI (Fortebio)
So I've got a bunch of binders here, and I need their Kd values.
Answer format reminder: number followed by unit.

Return reported Kd. Input binder: VH SEQ ID NO 634 / VL SEQ ID NO 374 (antibody, IgG4, V domains shown, humanized 11F2; IgG4 S228P/kappa) VH: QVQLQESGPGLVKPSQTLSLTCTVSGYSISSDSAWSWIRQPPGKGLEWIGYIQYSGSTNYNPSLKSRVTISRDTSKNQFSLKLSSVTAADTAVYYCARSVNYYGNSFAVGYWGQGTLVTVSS VL: EIVLTQSPATLSLSPGERATLSCRASQGLSDYLAWYQQKPGQAPRLLIKYTSQPATGIPARFSGSGSGTDFTLTISSLEPEDFAVYYCQNGHSFPLTFGQGTKLEIK
4.5 nM

Return reported Kd. Input binder: VH SEQ ID NO 514 / VL SEQ ID NO 310 (antibody, IgG4, V domains shown, humanized 11F2; IgG4 S228P/kappa) VH: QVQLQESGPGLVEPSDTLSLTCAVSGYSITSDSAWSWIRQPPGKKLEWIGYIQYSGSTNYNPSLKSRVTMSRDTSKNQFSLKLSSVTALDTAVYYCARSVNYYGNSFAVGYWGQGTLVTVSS VL: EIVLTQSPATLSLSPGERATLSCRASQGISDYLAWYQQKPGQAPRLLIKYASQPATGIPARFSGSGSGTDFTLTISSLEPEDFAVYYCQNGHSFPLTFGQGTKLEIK
3.1 nM

Return reported Kd. Input binder: VH SEQ ID NO 554 / VL SEQ ID NO 326 (antibody, IgG4, V domains shown, humanized 11F2; IgG4 S228P/kappa) VH: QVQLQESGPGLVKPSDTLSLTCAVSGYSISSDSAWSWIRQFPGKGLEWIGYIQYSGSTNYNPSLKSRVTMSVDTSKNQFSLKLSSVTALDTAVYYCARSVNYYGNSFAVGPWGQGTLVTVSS VL: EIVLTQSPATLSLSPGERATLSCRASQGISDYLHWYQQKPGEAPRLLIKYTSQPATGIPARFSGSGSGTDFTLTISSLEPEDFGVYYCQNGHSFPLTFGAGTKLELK
14 nM
